Listing of entries alongside the reported pEC50.
# assay-target: GABA-A receptor; alpha-1/beta-2/gamma-2 (Homo sapiens, UniProt P14867+P18507+P47870)
# Sequence (P14867 whole entry): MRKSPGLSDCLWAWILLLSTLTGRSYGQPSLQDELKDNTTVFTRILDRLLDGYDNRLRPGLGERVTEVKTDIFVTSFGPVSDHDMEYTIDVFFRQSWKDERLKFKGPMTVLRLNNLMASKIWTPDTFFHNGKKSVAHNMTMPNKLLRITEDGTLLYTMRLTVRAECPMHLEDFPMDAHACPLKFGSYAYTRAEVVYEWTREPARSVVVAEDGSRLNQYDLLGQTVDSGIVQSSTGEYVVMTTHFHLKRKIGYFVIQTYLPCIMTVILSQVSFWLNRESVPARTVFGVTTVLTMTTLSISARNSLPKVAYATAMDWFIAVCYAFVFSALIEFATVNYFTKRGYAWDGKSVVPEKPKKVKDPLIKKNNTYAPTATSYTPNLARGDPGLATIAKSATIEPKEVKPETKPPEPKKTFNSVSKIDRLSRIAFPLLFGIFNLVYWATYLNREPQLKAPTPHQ
# Sequence (P47870 whole entry): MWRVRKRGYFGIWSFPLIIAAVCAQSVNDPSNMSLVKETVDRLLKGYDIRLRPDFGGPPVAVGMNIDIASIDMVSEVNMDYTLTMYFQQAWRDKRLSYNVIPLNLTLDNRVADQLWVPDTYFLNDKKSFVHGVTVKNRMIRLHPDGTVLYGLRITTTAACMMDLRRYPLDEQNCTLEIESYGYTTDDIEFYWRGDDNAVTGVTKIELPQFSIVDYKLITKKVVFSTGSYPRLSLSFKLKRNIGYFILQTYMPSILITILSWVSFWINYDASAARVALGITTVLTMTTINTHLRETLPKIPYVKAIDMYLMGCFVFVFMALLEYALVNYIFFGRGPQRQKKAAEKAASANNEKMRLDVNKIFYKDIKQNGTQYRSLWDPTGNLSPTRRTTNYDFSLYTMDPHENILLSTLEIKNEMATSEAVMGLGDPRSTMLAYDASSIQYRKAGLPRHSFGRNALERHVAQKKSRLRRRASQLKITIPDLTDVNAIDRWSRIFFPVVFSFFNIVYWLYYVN
# Sequence (P18507 whole entry): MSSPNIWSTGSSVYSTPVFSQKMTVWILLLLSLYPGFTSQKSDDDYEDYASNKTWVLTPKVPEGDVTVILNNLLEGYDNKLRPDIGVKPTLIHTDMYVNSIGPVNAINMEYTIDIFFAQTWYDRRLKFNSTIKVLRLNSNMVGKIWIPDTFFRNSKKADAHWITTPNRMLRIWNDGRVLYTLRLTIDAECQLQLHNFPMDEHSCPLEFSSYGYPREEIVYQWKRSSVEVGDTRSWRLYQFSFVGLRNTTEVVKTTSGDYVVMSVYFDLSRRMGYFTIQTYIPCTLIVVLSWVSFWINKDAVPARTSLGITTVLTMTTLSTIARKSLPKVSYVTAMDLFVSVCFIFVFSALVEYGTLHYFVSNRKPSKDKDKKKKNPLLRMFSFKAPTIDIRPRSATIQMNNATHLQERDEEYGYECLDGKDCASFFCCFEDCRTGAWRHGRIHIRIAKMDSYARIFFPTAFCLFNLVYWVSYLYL
# method: Steroid potentiation of 5% GABA responses in Xenopus oocytes expressing human alpha-1-beta-2-gamma-2L subunits of GABA-A receptor
pEC50: −log10 of the molar value.
measure: pEC50

CC(=O)[C@H]1CC[C@H]2[C@@H]3CC[C@@H]4C[C@@](O)(C#Cc5ccccc5O)CC[C@]4(C)[C@H]3CC[C@]12C = 6.47
CC(=O)[C@H]1CC[C@H]2[C@@H]3CC[C@@H]4C[C@@](O)(C#Cc5ccc(C=O)cc5)CC[C@]4(C)[C@H]3CC[C@]12C = 7.51
